Target: A2B human receptor (A2BR) (Homo sapiens, UniProt P29275)
Construct: expressed in transfected cells; host or cells: HEK-293
Sequence (P29275 1-332): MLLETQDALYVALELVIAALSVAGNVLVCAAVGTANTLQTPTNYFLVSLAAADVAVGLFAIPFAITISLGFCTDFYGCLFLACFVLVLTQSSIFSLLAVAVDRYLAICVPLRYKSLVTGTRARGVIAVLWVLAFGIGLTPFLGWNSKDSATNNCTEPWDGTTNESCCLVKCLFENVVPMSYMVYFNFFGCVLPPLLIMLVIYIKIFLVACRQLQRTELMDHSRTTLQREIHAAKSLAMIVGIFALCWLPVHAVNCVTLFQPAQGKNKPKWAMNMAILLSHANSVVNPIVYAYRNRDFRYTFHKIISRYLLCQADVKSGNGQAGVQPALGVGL
Assay: Radioligand binding competition assay, human A2B receptor in transfected HEK-293 cells
Conditions: 0.1 µM compound; read-out: percentage displacement at 0.1µM (A2BR)
# inhibition at 0.1 µM values compiled below
measured endpoint: inhibition at 0.1 µM (%)

1. N#Cc1c(C2CCCCC2)cc(-c2cccs2)nc1N ... 1
2. N#Cc1c(-c2ccc(O)cc2)cc(-c2ccc(O)cc2)nc1N ... 1
3. COc1ccc(-c2cc(-c3ccc(O)cc3)nc(N)c2C#N)cc1 ... 1
4. N#Cc1c(-c2ccco2)cc(-c2ccsc2)nc1N ... 5
5. N#Cc1c(-c2ccccc2)cc(-c2ccc(F)cc2)nc1N ... 2
6. COc1ccccc1-c1cc(-c2ccccc2F)nc(N)c1C#N ... 2
7. N#Cc1c(C2CCCCC2)cc(-c2ccco2)nc1N ... 3
8. COc1ccc(-c2cc(-c3ccccc3)nc(N)c2C#N)c(OC)c1 ... 1
9. N#Cc1c(-c2ccccc2)cc(-c2nccs2)nc1N ... 3
10. Cn1cccc1-c1cc(-c2ccccc2)c(C#N)c(N)n1 ... 5

----------
Biological target: A3 human receptor (A3R) (Homo sapiens)
Construct: expressed in transfected cells; host or cells: HeLa
Sequence (P0DMS8 whole entry): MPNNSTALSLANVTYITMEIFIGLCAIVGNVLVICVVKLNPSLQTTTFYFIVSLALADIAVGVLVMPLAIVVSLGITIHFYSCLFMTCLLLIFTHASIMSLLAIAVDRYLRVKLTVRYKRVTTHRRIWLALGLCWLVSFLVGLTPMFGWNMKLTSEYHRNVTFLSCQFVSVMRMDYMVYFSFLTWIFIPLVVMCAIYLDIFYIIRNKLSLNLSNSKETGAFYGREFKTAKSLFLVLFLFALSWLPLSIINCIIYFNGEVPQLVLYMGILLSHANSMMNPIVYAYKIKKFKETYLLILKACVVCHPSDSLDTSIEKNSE
Experiment: Radioligand binding competition assay, human A3 receptor in transfected HeLa cells
Settings: 0.1 µM compound; read-out: percentage displacement at 0.1µM (A3R)
# inhibition at 0.1 µM values compiled below
measured endpoint: inhibition at 0.1 µM (%)

1. N#Cc1c(-c2ccccc2Cl)cc(-c2ccc(O)cc2)nc1N ... 1
2. COc1ccccc1-c1cc(-c2ccccc2)nc(N)c1C#N ... 26
3. COc1ccc(-c2cc(-c3ccccc3F)nc(N)c2C#N)cc1 ... 27
4. Cc1ccccc1-c1cc(C2CCCCC2)c(C#N)c(N)n1 ... 28
5. COc1ccc(-c2cc(-c3ccco3)nc(N)c2C#N)cc1 ... 21

----------
Molecular target: UniProtKB P29274
Sequence (P29274 whole entry): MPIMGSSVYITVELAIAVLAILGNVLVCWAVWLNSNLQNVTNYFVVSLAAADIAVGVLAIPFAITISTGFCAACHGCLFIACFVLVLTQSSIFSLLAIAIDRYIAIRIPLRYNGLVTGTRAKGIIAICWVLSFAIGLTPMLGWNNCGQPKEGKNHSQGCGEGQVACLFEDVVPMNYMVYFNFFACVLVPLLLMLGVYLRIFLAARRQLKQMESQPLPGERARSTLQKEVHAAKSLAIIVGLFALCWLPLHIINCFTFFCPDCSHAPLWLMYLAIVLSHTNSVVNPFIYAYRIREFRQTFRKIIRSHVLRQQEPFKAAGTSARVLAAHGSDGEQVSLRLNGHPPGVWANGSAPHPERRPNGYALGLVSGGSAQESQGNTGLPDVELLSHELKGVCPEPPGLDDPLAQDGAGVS
Test: Radioligand binding competition assay, human A2A receptor in transfected HeLa cells
Conditions: Cheng-Prusoff approximation
Method: Bioactivity testing was performed using A1 and A2A human adenosine receptors expressed in transfected CHO (A1) and HeLa (A2A) cells, as well as AD293 cells that were transiently transfected with human PDE10A. Table 1 includes the list of synthesized 4,6-substituted 2-amino-pyridin-3-carbonitriles, along with their Ki values against A1R, A2AR, and IC50 values against PDE10A. […]
measured endpoint: Ki (nM)

1) COc1ccccc1-c1cc(-c2ccco2)nc(N)c1C#N ... 95
2) N#Cc1c(C2CCCCC2)cc(-c2ccco2)nc1N ... 49
3) N#Cc1c(-c2ccco2)cc(-c2ccsc2)nc1N ... 55
4) COc1ccccc1-c1cc(-c2ccccc2)nc(N)c1C#N ... 543
5) COc1ccccc1-c1cc(-c2ccccc2F)nc(N)c1C#N ... 338
6) N#Cc1c(-c2ccccc2F)cc(-c2ccccc2F)nc1N ... 948
